Reference for the values: paper PMC6792352

experiment: in vitro; details: rat, gh3-tre-luc cells, AC50 (uM) modified / 1000, Tox21_110001=Tox21_110893; viability, 1 nM T3 present, 24 h
readout_label: CC50 at 24 h

Entry `C[C@]12CCC(=O)C=C1CC[C@@H]1[C@@H]2CC[C@]2(C)C(=O)CC[C@@H]12` : reported CC50 at 24 h = ?
> 50 µM

====

test system: GH3-TRE-Luc cell line; details: read-out: AC50 (uM) modified / 1000; Tox21_110001=Tox21_112096; viability, 1 nM T3 present, 24 h
readout_label: CC50 (µM)
Kindly answer with a numeric value in µM, unit omitted.

Which measured CC50 belongs to CCCCCCCCCCCCCCCC[N+](C)(C)C [Hexadecyltrimethylammonium bromide] , tested on GH3-TRE-Luc cell line?
9.07

====

assay: in vitro; settings: rat, gh3-tre-luc cells, AC50 (uM) modified / 1000, Tox21_110001=Tox21_301203; viability, 1 nM T3 present, 24 h
readout_label: CC50 at 24 h

Entry C=CCc1ccc(OC(=O)Cc2ccccc2)c(OC)c1 [Eugenyl phenylacetate] : reported CC50 at 24 h = ?
> 90 µM

====

assay: in vitro; conditions: rat, gh3-tre-luc cells, AC50 (uM) modified / 1000, Tox21_110001=Tox21_110501; viability, 1 nM T3 present, 24 h
readout_label: CC50 at 24 h

Entry CNC(C)(C)Cc1ccccc1 [Mephentermine hemisulfate] : reported CC50 at 24 h = ?
> 20 µM

====

experiment: in vitro; settings: rat, gh3-tre-luc cells, AC50 (uM) modified / 1000, Tox21_110001=Tox21_201788; viability, 1 nM T3 present, 24 h
readout_label: CC50 at 24 h

Entry CC(C#N)CCC#N (stereo not shown) [2-Methylpentanedinitrile] : reported CC50 at 24 h = ?
> 90 µM

====

test: in vitro; conditions: rat, gh3-tre-luc cells, AC50 (uM) modified / 1000, Tox21_110001=Tox21_202971; viability, 1 nM T3 present, 24 h
readout_label: CC50 at 24 h

Entry `Nc1ccc2c(c1)Cc1ccccc1-2` : reported CC50 at 24 h = ?
> 90 µM

====

test: in vitro; conditions: rat, gh3-tre-luc cells, AC50 (uM) modified / 1000
Counter-ions that a name gives are not always drawn.
Catalogue of CC50 at 24 h values

INSERT INTO results (molecule, readout_label, value_measured) VALUES
  ('C=C[Si](OC(=C)C)(OC(=C)C)OC(=C)C [Ethenyl[tris(prop-1-en-2-yloxy)]silane]', 'CC50 at 24 h', '> 90 µM'),
  ('C=C[C@H]1C[N@@]2CC[C@H]1C[C@@H]2[C@@H](O)c1ccnc2ccccc12', 'CC50 at 24 h', '> 50 µM'),
  ('O=c1c2ccccc2nnn1CCl', 'CC50 at 24 h', '> 90 µM');

Entry CCCCCCCCCCCCCCCCCC(=O)O [Triethanolamine stearate] : reported CC50 at 24 h = ?
> 90 µM

Entry NNC(=O)c1ccccc1 [Benzoyl hydrazine] : reported CC50 at 24 h = ?
> 90 µM

Entry CNC[C@@H]1CC[C@@H](N)[C@@H](O[C@H]2[C@H](O)[C@@H](O[C@H]3OC[C@](C)(O)[C@H](NC)[C@H]3O)[C@H](N)C[C@@H]2N)O1 [Micronomicin sulfate] : reported CC50 at 24 h = ?
> 50 µM

Entry Clc1ccccc1-c1nc(-c2ccncc2)no1 [Pifexole] : reported CC50 at 24 h = ?
> 50 µM

Entry `Cc1cccc2sc(N)nc12` : reported CC50 at 24 h = ?
> 90 µM

Entry CC(C)CCOC(=O)CC(C)C [3-Methylbutyl 3-methylbutanoate] : reported CC50 at 24 h = ?
> 90 µM
